From: the Immune Epitope Database (IEDB)

# Kd values compiled below
target: HLA-A*02:03; test: IEDB peptide-MHC binding, purified MHC/competitive/radioactivity; filed as Kd, often an IC50 or EC50 that approximates it; bounds were set here for any values at or beyond the usual limits of such assays; conditions: source organism: Homo sapiens
Output spec: scalar in µM, unitless text.

Query: Data request, read-out Kd, for DLEDLKDQI
Response: 13.6

Let's switch to this sequence now.
Query: Data request, read-out Kd, for QLFNHTMFIL
Response: 0.00818

* * *

target: HLA-A*68:02; assay: IEDB peptide-MHC binding, purified MHC/direct/fluorescence; filed as Kd, often an IC50 or EC50 that approximates it; bounds were set here for any values at or beyond the usual limits of such assays; settings: source organism: Camelpox virus M-96
pKd: −log10 of the molar value.
reportedEndpoint: pKd

Query: Data request, read-out pKd, for YERGNIIIF
Response: ≤ 4.70

Let's switch to this sequence now.
Query: Data request, read-out pKd, for NRLKPRDFK
Response: ≤ 4.70

* * *

target: HLA-A*69:01; assay: IEDB peptide-MHC binding, purified MHC/competitive/fluorescence; filed as Kd, often an IC50 or EC50 that approximates it; bounds were set here for any values at or beyond the usual limits of such assays; conditions: source organism: Choclo virus
reportedEndpoint: Kd

Query: Data request, read-out Kd, for LPSSSSYSY
Response: ≥ 20 µM

* * *

# pIC50 values compiled below
target: HLA-A*24:02; assay: IEDB peptide-MHC binding, purified MHC/competitive/fluorescence; bounds were set here for any values at or beyond the usual limits of such assays; conditions: source organism: Vaccinia virus WR
Scale: pIC50 equals -log10([C]), with [C] in mol/L.

Query: Data request, read-out pIC50, for VDYGLVSKF
Response: 5.45

Let's switch to this sequence now.
Query: Data request, read-out pIC50, for ASNIVLDQI
Response: 5.28

* * *

biological target: HLA-A*02:06; test: IEDB peptide-MHC binding, purified MHC/competitive/radioactivity; filed as Kd, often an IC50 or EC50 that approximates it; bounds were set here for any values at or beyond the usual limits of such assays; settings: source organism: SARS coronavirus Tor2
reportedEndpoint: Kd (nM)
Output spec: scalar in nM, unitless text.

Query: Data request, read-out Kd, for HAFLCLFLL
Response: 1.22

Query: Input AMWLLLLSI
Response: 268

Query: Input FTLLFQLCT
Response: 140

Query: Input AIILASFSA
Response: 81.6

Query: Input LIVNSVLLFL
Response: 10.8

Next:
Query: Data request, read-out Kd, for FLVLIMLII
Response: 1350

Query: Input KLMGHFSWWT
Response: 99.1

Query: Input YLMCLSPLM
Response: 1.12

* * *

biological target: HLA-B*40:01; experiment: IEDB peptide-MHC binding, purified MHC/competitive/fluorescence; filed as Kd, often an IC50 or EC50 that approximates it; bounds were set here for any values at or beyond the usual limits of such assays; conditions: source organism: Yersinia pestis Nepal516
# Kd values compiled below
Output spec: scalar in nM, unitless text.

Query: Data request, read-out Kd, for VEMQLAVVI
Response: 7.9

Let's switch to this sequence now.
Query: Data request, read-out Kd, for SQMGLSCAL
Response: 566

* * *

target: HLA-A*30:02; experiment: IEDB peptide-MHC binding, purified MHC/competitive/radioactivity; filed as Kd, often an IC50 or EC50 that approximates it; bounds were set here for any values at or beyond the usual limits of such assays; conditions: source organism: Dengue virus 1 Brazil/97-11/1997
reportedEndpoint: pKd
Scale: pKd equals -log10([C]), with [C] in mol/L.

Query: Write down the reported pKd of YGGPISQHNY , test system: HLA-A*30:02.
Response: 6.72
